The origin of these recorded values is ChEMBL document CHEMBL1128325.

test: Partition coefficient (logP); type: physicochemical; details: octanol/water; read-out: logP
readout-type: logP

Consider the worked cases shown below.
NCCCC(NC(=O)c1ccccc1)C(=O)O (configuration not stated): -2.09
CC(C)CC(NS(=O)(=O)c1ccccc1)C(=O)O (configuration not stated): -1.69
O=C(O)C(CO)NS(=O)(=O)c1ccccc1 (configuration not stated): -3.98

I = O=C(O)CC(NC(=O)c1ccccc1)C(=O)O (configuration not stated)
II = O=C(NCCCCC(NC(=O)c1ccccc1)C(=O)O)c1ccccc1 (configuration not stated)
III = COC(=O)C(Cc1ccccc1)NC(=O)c1ccccc1 (configuration not stated)
Inquiry: Rank the items in ascending order with respect to logP. Kindly provide the labels arranged according to the requested ordering.
Reply text: I, II, III
(I: -2.79, II: -1.22, III: -0.13)
